Data origin: patent US20250313563A1

- system: GSK3b (GST-full length GSK3b) (Homo sapiens (Human))
- experiment summary: GSK3b TR-FRET kinase assay
- Type: biochemical
- condition notes: read-out: GSK3-B (TR-FRET 1 mM ATP); GMean; IC50; 1 mM ATP; geometric mean
pIC50: −log10 of the molar value.
value kind: pIC50

[[record]]
compound = "CC[C@]1(c2cccc(-c3cc(C)ncc3C)c2)C2=C(CC(C)(C)CC2=O)Nc2n[nH]c(C)c21"
value_kind = "pIC50"
measurement = "6.00 to 7.00"

[[record]]
compound = "CCC1(c2cccc(S(C)(=O)=O)c2)C2=C(CC(C)(C)CC2=O)Nc2n[nH]cc21 (stereo not shown)"
value_kind = "pIC50"
measurement = "6.00 to 7.00"

[[record]]
compound = "CCC1(c2cccc(C3CCOCC3)c2)C2=C(CC(C)(C)CC2=O)Nc2n[nH]cc21 (stereo not shown)"
value_kind = "pIC50"
measurement = "< 5.30"


// next item, pIC50 requested
input: Can you look up the measured pIC50 of CC1(C)CC(=O)C2=C(C1)Nc1n[nH]cc1[C@@]21COC2(CN(C(=O)Cc3ccccc3)C2)C1 for me?
output: ≥ 7.00

---

Below, each of the compounds is paired with its reported IC50 value.
- system: GSK3b (GST-full length GSK3b) (Homo sapiens (Human), UniProt P49841)
- Sequence (P49841 whole entry): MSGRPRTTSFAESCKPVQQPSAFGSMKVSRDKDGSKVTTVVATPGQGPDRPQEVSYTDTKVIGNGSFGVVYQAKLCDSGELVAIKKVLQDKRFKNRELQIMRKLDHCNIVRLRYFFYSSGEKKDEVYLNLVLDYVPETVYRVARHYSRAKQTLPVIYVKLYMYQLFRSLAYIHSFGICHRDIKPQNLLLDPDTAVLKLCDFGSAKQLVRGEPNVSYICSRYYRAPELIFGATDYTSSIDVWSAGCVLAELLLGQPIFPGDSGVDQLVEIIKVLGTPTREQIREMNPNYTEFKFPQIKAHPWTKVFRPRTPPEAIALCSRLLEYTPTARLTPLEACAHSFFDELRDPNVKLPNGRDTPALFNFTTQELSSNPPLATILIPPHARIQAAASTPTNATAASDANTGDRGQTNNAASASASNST
- experiment summary: GSK3b TR-FRET kinase assay
- Assay type: biochemical
- condition notes: 1 nM GSK3b, 2 μM ATP, 30 minute preincubation; geometric mean; read-out: GSK3-B TR-FRET BIOCHEMICAL (TR-FRET); GMean; IC50

Consider the reported IC50 for these compounds:
[[record]]
compound = "CC1(C)CC(=O)C2=C(C1)Nc1n[nH]c(Br)c1[C@@]21CCc2c(F)cccc21"
measurement = "1000 to 5000 nM"

[[record]]
compound = "CC[C@@]1(c2ccccc2)C2=C(C[C@@]3(CCOC3)CC2=O)Nc2n[nH]cc21"
measurement = "1000 to 5000 nM"

[[record]]
compound = "CC1(C)CC(=O)C2=C(C1)Nc1n[nH]cc1C2(C)c1cc(C(F)(F)F)ccc1F (centres unmarked)"
measurement = "100 to 1000 nM"


input: Can you look up the measured IC50 of CCC1(c2cccc(C(F)(F)F)c2)C2=C(CCN(c3cncnc3)C2=O)Nc2n[nH]cc21 (centres unmarked) [Compound 948379] for me?
output: 100 to 1000 nM

input: Can you look up the measured IC50 of CC[C@]1(c2cccc(-c3ccnn3C)c2)C2=C(CC3(CCOCC3)NC2=O)Nc2n[nH]cc21 for me?
output: > 5000 nM

input: Can you look up the measured IC50 of CCC1(c2cccc(C(F)(F)F)c2)C2=C(Nc3n[nH]cc31)C(F)C(C)(C)CC2=O (single isomer, unassigned) [Compound 837803] for me?
output: > 5000 nM

input: Can you look up the measured IC50 of CC1(C)CC(=O)C2=C(C1)Nc1n[nH]cc1C2(C)c1cc(Cl)cc(Cl)c1 (centres unmarked) for me?
output: 1000 to 5000 nM

input: Can you look up the measured IC50 of CCC1(c2cccc(-c3cncn3C)c2)C2=C(CC(C)(C)NC2=O)Nc2n[nH]c(C(F)(F)F)c21 (centres unmarked) [Compound 949010] for me?
output: ≤ 100 nM

input: Can you look up the measured IC50 of CC[C@]1(c2cccc(C(F)(F)F)c2)C2=C(CCN(c3cnc(OC)nc3)C2=O)Nc2n[nH]cc21 for me?
output: > 5000 nM

input: Can you look up the measured IC50 of CCC1(c2cccc(-c3ccnc(C)c3)c2)C2=C(CC(C)(C)N(C)C2=O)Nc2n[nH]cc21 (centres unmarked) [Compound 949004] for me?
output: 100 to 1000 nM

input: Can you look up the measured IC50 of CC1(C)CC(=O)C2=C(C1)Nc1n[nH]cc1C21CCc2c(Cl)cccc21 (centres unmarked) for me?
output: 100 to 1000 nM

input: Can you look up the measured IC50 of CCC1(c2cccc(SC)c2)C2=C(CC(C)(C)CC2=O)Nc2n[nH]cc21 (centres unmarked) for me?
output: 100 to 1000 nM

input: Can you look up the measured IC50 of CCC1(c2cccc(C(F)(F)F)c2)C2=C(CCN(c3cccc(C)c3)C2=O)Nc2n[nH]cc21 (centres unmarked) [Compound 949040] for me?
output: 100 to 1000 nM

input: Can you look up the measured IC50 of CC[C@@]1(c2cccc(-c3ccnc(C)c3)c2)C2=C(CC(C)(C)NC2=O)Nc2n[nH]c(C(F)(F)F)c21 for me?
output: ≤ 100 nM

input: Can you look up the measured IC50 of CC[C@]1(c2cccc(N(C)c3ncccn3)c2)C2=C(CC(C)(C)NC2=O)Nc2n[nH]cc21 [Compound 947826] for me?
output: ≤ 100 nM

input: Can you look up the measured IC50 of CCC1(c2cccc(-c3ccnc(OC)c3F)c2)C2=C(CC(C)(C)NC2=O)Nc2n[nH]cc21 (centres unmarked) for me?
output: 1000 to 5000 nM

input: Can you look up the measured IC50 of CC(C)(C)Cc1[nH]nc2c1C1(CCc3c(F)cccc31)C1=C(CC(C)(C)CC1=O)N2 (centres unmarked) for me?
output: 1000 to 5000 nM

input: Can you look up the measured IC50 of CC[C@@]1(c2cccc(S(=O)(=O)C3CC3)c2)C2=C(CC(C)(C)NC2=O)Nc2n[nH]cc21 for me?
output: ≤ 100 nM

input: Can you look up the measured IC50 of CCC1(c2cccc(C(F)(F)F)c2)C2=C(CCN(c3cncnc3)C2=O)Nc2n[nH]cc21 (centres unmarked) [Compound 948380] for me?
output: > 5000 nM

input: Can you look up the measured IC50 of CC[C@@]1(c2ccccc2)C2=C(C[C@H](C)CC2=O)Nc2n[nH]cc21 for me?
output: > 5000 nM

---

- system: GSK3α (GST-full length GSK3α) (Homo sapiens (Human), UniProt P49840)
- Sequence (P49840 whole entry): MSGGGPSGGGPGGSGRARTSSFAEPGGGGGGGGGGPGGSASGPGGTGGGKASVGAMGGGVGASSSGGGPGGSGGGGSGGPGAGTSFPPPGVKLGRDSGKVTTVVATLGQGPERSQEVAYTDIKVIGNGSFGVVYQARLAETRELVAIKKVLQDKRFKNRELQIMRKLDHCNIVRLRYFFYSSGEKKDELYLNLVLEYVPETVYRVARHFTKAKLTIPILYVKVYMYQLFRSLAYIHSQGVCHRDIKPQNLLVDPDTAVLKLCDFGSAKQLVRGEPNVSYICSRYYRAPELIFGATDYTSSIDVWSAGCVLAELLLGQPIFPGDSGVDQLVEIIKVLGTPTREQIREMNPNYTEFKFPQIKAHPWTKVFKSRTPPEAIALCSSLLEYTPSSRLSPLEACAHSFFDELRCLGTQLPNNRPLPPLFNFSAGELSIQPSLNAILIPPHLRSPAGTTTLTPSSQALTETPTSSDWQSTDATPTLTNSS
- experiment summary: GSK3α TR-FRET kinase assay
- Format: biochemical
- condition notes: 1 nM GSK3α, 4 μM ATP, 30 minute preincubation, Table 16; read-out: GSK3-A TR-FRET BIOCHEMICAL (TR-FRET)
- Experimental: TR-FRET Assay: The assay was performed in a white, 384 well, low volume, flat bottom plate (Grenier). After a 30 minute preincubation in assay buffer with the indicated concentration of compound, the kinase activity was initiated by the addition of the substrates. […] After 60 min at room temperature the plate was read on Envision plate reader using Ex: 340 nm, Em: 615 nm and […]. The normalized 665/615 Signal ratio versus log compound concentration was analyzed by XLFIT to yield IC50 values.
pIC50: −log10 of the molar value.
Below, each of the compounds is paired with its reported pIC50 value.

[[record]]
compound = "CCC1(c2cccc(S(=O)(=O)C3COC3)c2)C2=C(CC(C)(C)CC2=O)Nc2n[nH]cc21 (centres unmarked) [Compound 946003]"
system = "GSK3α (GST-full length GSK3α) (Homo sapiens (Human), UniProt P49840)"
value_kind = "pIC50"
measurement = "6.00 to 7.00"

[[record]]
compound = "CN(C)C(=O)c1cccc(S(=O)(=O)N2CCC3(CC2)C2=C(CC(C)(C)CC2=O)Nc2n[nH]cc23)c1"
system = "GSK3α (GST-full length GSK3α) (Homo sapiens (Human), UniProt P49840)"
value_kind = "pIC50"
measurement = "≥ 7.00"

[[record]]
compound = "CCC1(c2cccc(N(C)C3CC3)c2)C2=C(CC(C)(C)CC2=O)Nc2n[nH]cc21 (centres unmarked)"
system = "GSK3α (GST-full length GSK3α) (Homo sapiens (Human), UniProt P49840)"
value_kind = "pIC50"
measurement = "6.00 to 7.00"

[[record]]
compound = "CC[C@]1(c2cccc(C(F)(F)F)c2)C2=C(C[C@@]3(CCN(C)C3=O)CC2=O)Nc2n[nH]cc21"
system = "GSK3α (GST-full length GSK3α) (Homo sapiens (Human), UniProt P49840)"
value_kind = "pIC50"
measurement = "< 5.30"

[[record]]
compound = "CC1(C)CC(=O)C2=C(C1)Nc1n[nH]cc1C21CSC1"
system = "GSK3α (GST-full length GSK3α) (Homo sapiens (Human), UniProt P49840)"
value_kind = "pIC50"
measurement = "≥ 7.00"

[[record]]
compound = "CC1(C)CC(=O)C2=C(C1)Nc1n[nH]cc1[C@@]21CC[C@@H](C(F)(F)F)C1"
system = "GSK3α (GST-full length GSK3α) (Homo sapiens (Human), UniProt P49840)"
value_kind = "pIC50"
measurement = "≥ 7.00"

[[record]]
compound = "CC1(C)CC(=O)C2=C(C1)Nc1n[nH]cc1C21CCN(S(=O)(=O)c2cnn(CC(F)(F)F)c2)CC1"
system = "GSK3α (GST-full length GSK3α) (Homo sapiens (Human), UniProt P49840)"
value_kind = "pIC50"
measurement = "≥ 7.00"

[[record]]
compound = "CCC1(c2cccc(-c3ccnn3C(C)C)c2)C2=C(CC(C)(C)CC2=O)Nc2n[nH]cc21 (centres unmarked)"
system = "GSK3α (GST-full length GSK3α) (Homo sapiens (Human), UniProt P49840)"
value_kind = "pIC50"
measurement = "5.30 to 6.00"

[[record]]
compound = "CC1(C)CC(=O)C2=C(C1)Nc1n[nH]cc1[C@@]21CCCN(S(=O)(=O)C2CC2)CC1"
system = "GSK3α (GST-full length GSK3α) (Homo sapiens (Human), UniProt P49840)"
value_kind = "pIC50"
measurement = "≥ 7.00"

[[record]]
compound = "CC[C@@]1(c2cccc(-c3ccnc(C)c3)c2)C2=C(CC(C)(C)[C@H](F)C2=O)Nc2n[nH]cc21"
system = "GSK3α (GST-full length GSK3α) (Homo sapiens (Human), UniProt P49840)"
value_kind = "pIC50"
measurement = "5.30 to 6.00"


input: Can you look up the measured pIC50 of CCn1nccc1S(=O)(=O)N1CCC2(CC1)C1=C(CC(C)(C)CC1=O)Nc1n[nH]cc12 for me?
output: ≥ 7.00
